biological target: EGFR (Homo sapiens, UniProt P00533); construct: EGFR cytoplasmic domain (EGFR-CD, amino acids 645–1186); (His)6 (N); made in house; host or cells: Sf-9 insect cells (baculovirus); assay: EGFR kinase autophosphorylation assay (DELFIA/Time Resolved Fluorometry); assay type: biochemical; conditions: enzyme incubated with compounds for 70 min
Sequence (P00533 669-1210): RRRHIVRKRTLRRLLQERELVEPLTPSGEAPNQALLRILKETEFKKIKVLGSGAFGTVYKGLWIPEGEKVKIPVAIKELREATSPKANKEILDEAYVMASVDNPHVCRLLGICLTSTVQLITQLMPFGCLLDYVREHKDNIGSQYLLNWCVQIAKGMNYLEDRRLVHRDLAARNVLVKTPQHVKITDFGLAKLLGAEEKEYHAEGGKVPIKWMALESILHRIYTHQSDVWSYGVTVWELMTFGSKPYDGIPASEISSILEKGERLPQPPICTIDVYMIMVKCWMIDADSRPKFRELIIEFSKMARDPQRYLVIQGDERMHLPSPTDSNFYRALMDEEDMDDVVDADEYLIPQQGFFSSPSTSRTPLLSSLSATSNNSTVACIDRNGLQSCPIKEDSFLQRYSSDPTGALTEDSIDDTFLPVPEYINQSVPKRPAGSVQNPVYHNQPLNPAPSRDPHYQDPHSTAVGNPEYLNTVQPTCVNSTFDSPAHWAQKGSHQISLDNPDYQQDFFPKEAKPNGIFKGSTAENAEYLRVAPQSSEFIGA
reported metric: IC50 (µM)

Some solved cases for reference:
entry smiles | study system | IC50 (µM)
CCOc1ccc(NC(=O)/C=C/c2ccc3c(c2)OCCCCO3)cc1 | EGFR (Homo sapiens, UniProt P00533) | 0.36
Cc1cccc(NC(=O)/C=C/c2ccc3c(c2)OCCCCO3)c1 | EGFR (Homo sapiens, UniProt P00533) | 12

a: O=C(/C=C/c1ccc2c(c1)OCCCCO2)Nc1ccc(Br)cc1
b: O=C(/C=C/c1ccc2c(c1)OCCCCO2)NCc1ccccc1F
Field: lower IC50 | Options: a / b Answer by quoting the chosen item's label. b
